// data source = PubChem BioAssay

- procedure summary: blockers of RIG-like receptor reporter activation – cell-based, Sendai virus stimulus, luciferase, 10K MLSCN set, TLR/RLR signaling modifier project, primary screen (AID 602276);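 note: firefly luciferase from ISG56 promoter only with Renilla not read in this screen; 0% = Sendai virus plus DMSO and 100% = medium plus DMSO without virus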
- condition info: HEK293 RL24 IRF3 luciferase reporter, at 10 µM, stronger effect = higher value
Output MET for inhibition not less than 10%; output NOT MET otherwise.

{"smiles str": "CC1(C)CC(=O)c2cc(OCC(=O)N3CCN(c4ccccc4F)CC3)ccc2O1", "class": "MET"}
{"smiles str": "Cc1ccccc1CN1CCN(CC(=O)NCc2ccco2)C1=O", "class": "MET"}
{"smiles str": "COc1ccc(-c2cc(C(F)(F)F)nc(SCCC(=O)N3CCOCC3)n2)cc1", "class": "MET"}
{"smiles str": "O=C(Nc1ccccc1N1CCN(C(=O)c2ccc(Cl)cc2)CC1)c1cc2ccccc2o1", "class": "NOT MET"}

----------
- procedure summary: inhibitors of TNFa-induced NFkB p65 translocation, primary screen, imaging, HUVEC, MLSMR starter and 10KST1 sets (AID 438);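 note: compound added about 3h40 before a 20 min TNFalpha stimulation; signal is the nuclear over cytoplasmic p65 intensity ratio per well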
- condition info: HUVEC TNFa-induced p65 nuclear translocation; at 2 µM, stronger effect = higher value, 0% TNFa-plus-vehicle, 100% no-TNFa wells

{"compound": "CCN1C(=O)OC2(CCCCC2)C1(C)O (stereo not drawn)", "readout units": "%", "inhibition": 0}
{"compound": "Cc1ccc(NC2=NC(c3ccccc3)n3c(nc(C)cc3=O)N2)cc1 (stereo not drawn)", "readout units": "%", "inhibition": -5.6}
{"compound": "C=CCN(CC=C)C(=O)CN1C(=O)c2ccccc2C1=O", "readout units": "%", "inhibition": 0.2}
{"compound": "CCOC(=O)C1=C(CN2CCOCC2)NC(=O)NC1c1cc(C)ccc1C (stereo not drawn)", "readout units": "%", "inhibition": -3}
{"compound": "CC(CN1CCOCC1)(NS(=O)(=O)c1ccccc1)c1ccccc1 (stereo not drawn)", "readout units": "%", "inhibition": -12}
{"compound": "CCOC(=O)C1CCN(C(=O)c2c(-c3c(Cl)cccc3Cl)noc2C)CC1", "readout units": "%", "inhibition": 1.6}
{"compound": "O=C(CP(=O)(c1ccccc1)c1ccccc1)N1CCCCC1", "readout units": "%", "inhibition": 6.6}
{"compound": "O=C1CCC(=O)N1OCCCCOc1ccccc1", "readout units": "%", "inhibition": 3.7}
{"compound": "C=CCSc1nc2c(c(=O)[nH]c(=O)n2C)n1C(C)C", "readout units": "%", "inhibition": -11.3}
{"compound": "O=C(OCc1nnc(-c2ccccc2)o1)c1ccc(S(=O)(=O)NCc2ccco2)cc1", "readout units": "%", "inhibition": -8.9}
{"compound": "COc1ccc(-c2cc(C(F)F)n3ncc(C(=O)NCC4CCCO4)c3n2)cc1 (stereo not drawn)", "readout units": "%", "inhibition": 4.7}
{"compound": "CCN(CC)C(=O)CSc1nc2ccc(NC(=O)CSc3nccn3C)cc2s1", "readout units": "%", "inhibition": -2.4}
{"compound": "O=P(O)(O)c1ccccc1OCCOCCOc1ccccc1P(=O)(O)O", "readout units": "%", "inhibition": -0.9}

----------
- procedure summary: reduction of polyQ htt aggregates in cells – imaging, exon1htt(103Q)mCFP cells, high-content imaging, primary screen (AID 483);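 note: compound exposure lasted 3 days before fixation; percent of the per-plate median nuclei count of sample wells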
- condition info: exon1htt(103Q)mCFP cell line, aggregate imaging, at 2 µM; measured here: cell count, toxicity

{"molecule": "COc1ccc(S(=O)(=O)NC(CC(=O)NCc2ccco2)c2ccco2)cc1 (stereo unspecified)", "readout units": "%", "nuclei count": 114}
{"molecule": "CCN1C(=O)OC2(CCCCC2)C1(C)O (stereo unspecified)", "readout units": "%", "nuclei count": 114}
{"molecule": "COc1ccc(-c2noc(CCC(=O)NCCCN3CCC(Cc4ccccc4)CC3)n2)cc1", "readout units": "%", "nuclei count": 94}
{"molecule": "c1nnc(NC2=NCCCCC2)s1", "readout units": "%", "nuclei count": 105}
{"molecule": "C=CCN(CC=C)C(=O)CN1C(=O)c2ccccc2C1=O", "readout units": "%", "nuclei count": 83.2}
{"molecule": "CCc1nc(SCC(=O)Nc2nccs2)c2oc3ccccc3c2n1", "readout units": "%", "nuclei count": 104}
{"molecule": "CCOc1ccccc1NC(=O)CSc1c(C)n[nH]c1C", "readout units": "%", "nuclei count": 120}
{"molecule": "Cc1nnc(SCc2cnc(-c3ccccc3)o2)[nH]c1=O", "readout units": "%", "nuclei count": 92.7}
{"molecule": "CCOC(=O)N1CCC(NC(=O)C2CCCN2C(=O)OCc2ccccc2)CC1 (stereo unspecified)", "readout units": "%", "nuclei count": 120}
{"molecule": "CCN1CCN(c2c(Cl)cccc2NC(=O)c2ccc3c(c2)OCCO3)CC1", "readout units": "%", "nuclei count": 111}
{"molecule": "O=C(CCN1CCN(c2ccc(F)cc2)CC1)Nc1ccccc1F", "readout units": "%", "nuclei count": 84.8}
